Property: GI50; scope: individual molecules
- Test system: LXFL 529
- MEASUREMENT DESCRIPTION: NCI tumour cell line growth inhibition, 48 h
The source made the active and inactive calls. Cut-off read from the data, not from the text of the source: active = GI50 up to about 1.1 µM and inactive = higher.

Some molecules with known GI50 results, for comparison:
> print(dat)
                                   molecule               result
1            Nn1c(-c2ccccc2Cl)nc2ccccc2c1=O  > 100 µM (inactive)
2  CC(=O)OC(CCC1(C)OC1COc1ccc(CCNC(=O)C=C(C)C)cc1)C(C)(C)OC(C)=O (stereo not given)   12.7 µM (inactive)
3                  O=c1c2ccccc2sc2nc(O)nn12  > 100 µM (inactive)
4    CCN(CCO)CCNc1ccc(C)c2sc3ccccc3c(=O)c12   2.77 µM (inactive)

We next turn to a different molecule, shown below.
Exam item: Query: GI50; subject: "Cc1nc(-c2ccccc2)cc2c1c(=O)oc1ccccc12"
Marked response: > 100 µM (inactive)
